Target: Virion infectivity factor (Human immunodeficiency virus type 1 group M subtype B (isolate BH10)) + Virion infectivity factor (Human immunodeficiency virus type 1 group M subtype B (isolate BRU/LAI)) + Virion infectivity factor (Human immunodeficiency virus type 1 group M subtype B (isolate PCV12)) + Virion infectivity factor (Human immunodeficiency virus type 1 group M subtype B (isolate HXB2)) + DNA dC->dU-editing enzyme APOBEC-3G (Homo sapiens) (UniProt P69720+P69721+P69722+P69723+Q9HC16)
Test: HIV-1 Vif–A3G interaction blockers – biochemical, TR-FRET, GST-Vif 1-94, biotin-A3G peptide, dose response retest, primary screen (AID 1117319);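 note: Vif residues 1-94 fused to GST binding biotinylated APOBEC3G peptide 110-148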
Settings: TR-FRET GST-Vif / biotin-A3G peptide binding
Inconclusive results are not listed.
experimental_readout: pIC50
Give only the number. pIC50 is defined as minus log10 of concentration in molar units.

// query What value of measured pIC50 is listed for CCc1cc(=O)oc2cc(C)c(CN3CCCC3)c(O)c12 ?
// result 5.39

// query What value of measured pIC50 is listed for CCOc1cc(N2CCOCC2)c(OCC)cc1NS(=O)(=O)c1ccc(Cl)s1 ?
// result 5.49

// query What value of measured pIC50 is listed for CN=c1scc(-c2ccco2)n1/N=C/c1ccc(O)c(O)c1 ?
// result 5.03

// query What value of measured pIC50 is listed for Cc1cc(C)cc(Nc2ccc(C(=O)O)cc2N)c1 ?
// result 4.58

// query What value of measured pIC50 is listed for COC/C=C/C1=CC2=CC(=O)C(C)(OC(=O)c3cnc4ccccc4n3)C(=O)C2=CN1c1ccccc1 (stereo unspecified) ?
// result 5.56

From: PubChem BioAssay AID1117319
